Attribution: ChEMBL document CHEMBL1201862

Test system: NCI-H226
test: NCI tumour cell line growth inhibition, 48 h
Active and inactive are the calls of the source. Cut-off read from the data, not from the text of the source: active = GI50 up to about 1.1 µM and inactive = higher.
Entry note: the call must match one of 1 for active, 0 for inactive

Reference set (5 entries):
compound | label_class
C[C@H](NC(=O)C(Cc1ccccc1)(Cc1ccc(O)cn1)NC(=O)c1ccccc1)c1ccccc1 (some centres not stated) | 0
Cc1cc2c(cc1C)C(=O)C1(C2)Cc2c(C)ccc(C)c2C1=O (configuration not stated) | 0
CCOC(=O)CC1=Nc2ccccc2SC1 | 0
O=C1/C(=C/c2ccccc2)CCc2ccc([N+](=O)[O-])cc21 | 0
CCCCS(=O)(=O)Nc1ccc(Nc2c3ccccc3nc3ccccc23)c(OC)c1 | 1

Prompt line: Lab log entry: Cc1cc(C)nc(NS(=O)(=O)c2ccc(Nc3c4ccccc4nc4c(C(=O)NCCN(C)C)ccc(Cl)c34)cc2)n1 — outcome as called in the assay?
Response line: 1

Prompt line: Check the results log: what was the call for O=c1cc(-c2ccccc2)nc2[nH]ccn12 ?
Response line: 0

Prompt line: Lab log entry: COc1cc2cc(C(=O)N3CC(CCl)c4c3cc(NCCN)c3ccccc43)[nH]c2c(OC)c1OC (configuration not stated) — outcome as called in the assay?
Response line: 1

Prompt line: // outcome(item) with item = Cc1ccc(S(=O)(=O)N/N=C2\C(=O)Nc3cc(O)c(C(=O)O)cc32)cc1
Response line: 0

Prompt line: Look up the recorded call for CC1(C)[C@@H](Cn2cnc3c(N)ncnc32)CC[C@@]1(C)CO in this test.
Response line: 0

Prompt line: // param item: CC(=O)OC12CCCCC1C1(CCCC1)NC2=O (configuration not stated) ; yields the recorded call
Response line: 0

Prompt line: // param item: COc1c(C)cc2c(c1O)C1C3[C@H]4SC[C@@]5(NCCC6=C5NC5C=CC=CC65)C(=O)OCC(c5c6c(c(C)c(OC(C)=O)c54)OCO6)N3[C@@H](O)C(C2)N1C (some centres not stated) ; yields the recorded call
Response line: 1

Prompt line: Assay result, entry CCC[C@H](O)[C@@H](CNc1cc(NC(C)=O)nc(NC(C)=O)n1)N(Cc1ccccc1)Cc1ccccc1 — outcome?
Response line: 0

Prompt line: So what was the verdict on COc1ccc2c(c1)CCCN2CCCCCCCCCCN(CCC(C)C)CCC(C)C in this test?
Response line: 0

Prompt line: Kindly provide the recorded test outcome for the following compound: CC(C)(CO[C@H]1C[C@H]2CC[C@@]1(C)C2(C)C)[N+](=O)[O-]
Response line: 0

Prompt line: Called result for COc1ccc(CSC2=C(C#N)C(=O)NC3(CCCCC3)S2)cc1
Response line: 0
